Source listed as patent US10351522B2.

# TESTED TARGET: human OX2R (Homo sapiens, UniProt O43614)
# Construct: expressed in transfected cells; host or cells: CHO (Chinese hamster ovary) cells, line CHOOX2R, co-expressing NFAT-luciferase
# Sequence (O43614 whole entry): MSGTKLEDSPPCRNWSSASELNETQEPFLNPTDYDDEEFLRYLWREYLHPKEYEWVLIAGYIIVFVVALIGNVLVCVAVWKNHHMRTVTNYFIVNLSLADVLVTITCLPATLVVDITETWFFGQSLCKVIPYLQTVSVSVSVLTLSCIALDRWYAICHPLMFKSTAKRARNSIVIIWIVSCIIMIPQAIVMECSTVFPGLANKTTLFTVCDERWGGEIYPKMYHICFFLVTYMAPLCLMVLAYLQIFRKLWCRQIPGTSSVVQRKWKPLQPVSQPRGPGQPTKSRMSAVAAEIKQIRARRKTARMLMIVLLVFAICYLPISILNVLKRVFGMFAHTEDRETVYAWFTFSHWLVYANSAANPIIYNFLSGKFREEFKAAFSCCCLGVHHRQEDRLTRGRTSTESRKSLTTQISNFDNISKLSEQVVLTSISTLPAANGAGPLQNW
# EXPERIMENT SUMMARY: Agonist activity against OX2R: intracellular calcium (Fura-2AM, FDSS7000) in CHOOX2R cells
# Type: cell-based
# MEASUREMENT CONDITIONS: test compound 10 μM; relative to orexin-A as full agonist (100%)
REPORTED ENDPOINT: Response (%) OX2R
Give the number; % is assumed, so skip it.

The cases that follow already have their Response (%) OX2R on record.
COc1ccccc1Nc1c(Nc2cccc(NS(=O)(=O)c3cc(-c4cccc(C(=O)N(C)C)c4)ccc3OC)c2)c(=O)c1=O; 11
CCN(Cc1cccnc1)C(=O)c1ccc(OC)c(S(=O)(=O)Nc2cccc(NC(=O)Nc3ccc(N(C)C)cc3)c2)c1; 100
COc1cccc(Nc2c(Nc3cccc(NS(=O)(=O)c4cc(-c5cccc(C(=O)N(C)C)c5)ccc4OC)c3)c(=O)c2=O)c1; 16

I have this molecule here, CCOc1ccc(-c2cccc(C(=O)N(C)C)c2)cc1S(=O)(=O)Nc1cccc(NC(=O)Nc2cccc(N(C)C)c2)c1 , and I need its recorded Response (%) OX2R.
98

I have this molecule here, COc1ccc(-c2cccc(C(=O)N(C)C)c2)cc1S(=O)(=O)Nc1cccc(Nc2c(Nc3ccc(C)cc3)c(=O)c2=O)c1 , and I need its recorded Response (%) OX2R.
21

I have this molecule here, COc1ccc(-c2cccc(C(=O)N(C)C)c2)cc1S(=O)(=O)Nc1cccc(N2CCCN(c3ccc(N(C)C)cc3)C2=O)c1 , and I need its recorded Response (%) OX2R.
64

---

# TESTED TARGET: human OX1R (Homo sapiens, UniProt O43613)
# Construct: expressed in transfected cells; host or cells: CHO (Chinese hamster ovary) cells, line CHOOX1R, co-expressing NFAT-luciferase
# EXPERIMENT SUMMARY: Agonist activity against OX1R: intracellular calcium (Fura-2AM, FDSS7000) in CHOOX1R cells
# Assay type: cell-based
# MEASUREMENT CONDITIONS: 1.0 μM test compound; relative to orexin-A as full agonist (100%)
# Response (%) OX1R per entry

COc1ccccc1Nc1cccc(NS(=O)(=O)c2cc(-c3cccc(C(=O)N(C)C)c3)ccc2OC)c1; <5%
COc1ccc(-c2cccc(C(=O)N(C)C)c2)cc1S(=O)(=O)Nc1cccc(NC(=O)Nc2ccc(NC(=NC(=O)OC(C)(C)C)NC(=O)OC(C)(C)C)cc2)c1; <5%
COc1ccccc1NC(=O)Nc1cccc(NS(=O)(=O)c2cc(-c3cccc(C(=O)N(C)C)c3)ccc2OC)c1; <6%

Please examine the following record next.
What reported Response (%) OX1R corresponds to COc1ccc(-c2cccc(C(=O)N(C)C)c2)cc1S(=O)(=O)Nc1cccc(NC(=O)Nc2ccc(Br)cc2)c1 on human OX1R (Homo sapiens, UniProt O43613)?
<5%

---

# TESTED TARGET: human OX1R (Homo sapiens)
# Construct: expressed in transfected cells; host or cells: CHO (Chinese hamster ovary) cells, line CHOOX1R, co-expressing NFAT-luciferase
# Sequence (O43613 1-425): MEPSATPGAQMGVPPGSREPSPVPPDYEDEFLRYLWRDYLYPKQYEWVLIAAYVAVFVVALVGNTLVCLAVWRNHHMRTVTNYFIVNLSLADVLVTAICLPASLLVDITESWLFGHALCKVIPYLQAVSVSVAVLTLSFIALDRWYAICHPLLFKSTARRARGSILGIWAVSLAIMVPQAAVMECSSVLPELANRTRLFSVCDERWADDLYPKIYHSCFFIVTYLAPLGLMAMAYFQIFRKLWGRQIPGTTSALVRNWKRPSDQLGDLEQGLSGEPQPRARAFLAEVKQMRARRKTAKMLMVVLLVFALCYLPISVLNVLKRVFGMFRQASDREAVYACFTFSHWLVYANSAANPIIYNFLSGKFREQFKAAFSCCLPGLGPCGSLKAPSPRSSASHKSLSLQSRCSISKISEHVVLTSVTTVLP
# EXPERIMENT SUMMARY: Agonist activity against OX1R: intracellular calcium (Fura-2AM, FDSS7000) in CHOOX1R cells
# Format: cell-based
# MEASUREMENT CONDITIONS: 0.1 μM test compound; relative to orexin-A as full agonist (100%)
# Protocol: Evaluation of Agonist Activity Against OX1R and OX2R […] (As used herein, Response in Table 21 to Table 27 is a value obtained by dividing the agonist activity value, when the test compound is evaluated with orexin-A as a full-agonist (maximum value of agonist activity: 100%), at 10 μM, 1.0 μM, 0.1 μM by the agonist activity value of orexin-A.)
# Response (%) OX1R per entry

The cases that follow already have their Response (%) OX1R on record.
COc1ccc(-c2cccc(C(=O)N(C)C)c2)cc1S(=O)(=O)Nc1cccc(NC(=O)c2ccc(C)cc2)c1 [Example 17]; <5%
COc1ccc(-c2cccc(C(=O)N(C)C)c2)cc1S(=O)(=O)Nc1cccc(NC(=O)C[S+]([O-])C(c2ccccc2)c2ccccc2)c1 (centres unmarked) [Example 13]; <5%
COc1ccc(-c2cccc(C(=O)N(C)C)c2)cc1S(=O)(=O)Nc1cccc(NC(=O)Nc2ccc(NC(=NC(=O)OC(C)(C)C)NC(=O)OC(C)(C)C)cc2)c1 [Example 58]; <5%
COc1ccc(-c2cccc(C(=O)N(C)C)c2)cc1S(=O)(=O)Nc1cccc(Nc2cccc(C(F)(F)F)c2)c1 [Example 35]; <5%
COc1ccc(-c2cccc(C(=O)N(C)C)c2)cc1S(=O)(=O)Nc1cccc(NC(=O)Nc2ccccc2N(C)C)c1 [Example 41]; <5%

I have this compound here, COc1ccc(-c2cccc(C(=O)N(C)C)c2)cc1S(=O)(=O)Nc1cccc(NC(=O)c2ccncc2)c1 [Example 4] , and I need its recorded Response (%) OX1R.
10%

I have this compound here, COc1ccc(-c2cccc(C(=O)N(C)C)c2)cc1S(=O)(=O)Nc1cccc(NC(=O)Nc2cccc(C)c2)c1 [Example 38] , and I need its recorded Response (%) OX1R.
<5%

I have this compound here, COc1ccc(-c2cccc(C(=O)N(C)C)c2)cc1S(=O)(=O)Nc1cccc(NC(=O)Nc2ccccn2)c1 [Example 68] , and I need its recorded Response (%) OX1R.
6%

I have this compound here, COc1ccccc1C(=O)Nc1cccc(NS(=O)(=O)c2cc(-c3cccc(C(=O)N(C)C)c3)ccc2OC)c1 [Example 18] , and I need its recorded Response (%) OX1R.
<5%

I have this compound here, COc1ccc(-c2cccc(C(=O)N(C)C)c2)cc1S(=O)(=O)Nc1cccc(NC(=O)c2ccccc2C)c1 [Example 16] , and I need its recorded Response (%) OX1R.
<5%
